Let's look at some compounds and their measured inhibition.
target.entity: Angiotensin-converting enzyme (Homo sapiens)
protocol.description: Inhibition of ACE (unknown origin) using Hippuryl-His-Leu as substrate at 10 ug incubated for 10 min prior to substrate addition measured after 45 min by spectrophotometric analysis relative to control
Answer with a number only, understood to be in %.

c1ccc(-c2nnn[nH]2)c(-c2ccc(CN3CCNCC3)cc2)c1	83
c1ccc(-c2nnn[nH]2)c(-c2ccc(Cn3cncn3)cc2)c1	80
CN1CCN(Cc2ccc(-c3ccccc3-c3nnn[nH]3)cc2)CC1	92

Proceeding to the next compound to report its inhibition.
Form field: reported inhibition of c1ccc(-c2nnn[nH]2)c(-c2ccc(Cn3ccnc3)cc2)c1
80

Origin of the recorded values: ChEMBL document CHEMBL3045976
